The entries below come with measured selectivity ratio values attached.
assay: Therapeutic index, TC50 for human CEM174 cells to EC50 for SIV-induced syncytium; assay type: cell-based; conditions: read-out: TI

- line-notation: "Cc1ccc(S(=O)(=O)N[C@@H](Cc2ccccc2)C(=O)N/N=C/c2ccccc2F)cc1"
  selectivity ratio: "> 22.5"
- line-notation: "Cc1ccc(S(=O)(=O)N[C@@H](CO)C(=O)N/N=C/c2ccccc2)cc1"
  selectivity ratio: 3.2
- line-notation: "Cc1ccc(S(=O)(=O)N[C@@H](Cc2ccccc2)C(=O)NN=C2CCCCC2)cc1"
  selectivity ratio: 87.6
- line-notation: "O=S(=O)(N/N=C/c1ccccc1)c1ccc(Br)cc1"
  selectivity ratio: "> 105"
- line-notation: "CC(=O)Nc1ccc(S(=O)(=O)NCC(=O)N/N=C/c2ccccc2)cc1"
  selectivity ratio: "> 6.6"
- line-notation: "O=[N+]([O-])c1ccc(S(=O)(=O)N2CCC(c3ccccc3)=N2)cc1"
  selectivity ratio: "> 192"
- line-notation: "Cc1ccc(S(=O)(=O)N[C@@H](Cc2ccccc2)C(=O)N/N=C/c2ccc3c(c2)OCO3)cc1"
  selectivity ratio: "> 588"
- line-notation: "Cc1ccc(/C=N/NC(=O)[C@H](Cc2ccccc2)NS(=O)(=O)c2ccc(C)cc2)cc1"
  selectivity ratio: "> 10.1"
- line-notation: "COc1ccc(C(=O)N/N=C/c2ccccc2)cc1"
  selectivity ratio: "> 3.22"
- line-notation: "O=C(N[C@@H](CO)C(=O)N/N=C/c1ccccc1)c1ccc([N+](=O)[O-])cc1"
  selectivity ratio: "> 50"

###

test: Therapeutic index, TC50 for human CEM174 cells to EC50 for SIV-induced syncytium; assay type: cell-based; details: read-out: TI

- line-notation: "COc1ccc(C(=O)NCC(=O)N/N=C/c2ccccc2)cc1"
  selectivity ratio: 31.9
- line-notation: "O=C(N/N=C/c1ccccc1)[C@H](Cc1ccccc1)NS(=O)(=O)c1ccc(Br)cc1"
  selectivity ratio: "> 6.5"
- line-notation: "O=C(N[C@@H](Cc1ccccc1)C(=O)N/N=C/c1ccccc1)c1ccc([N+](=O)[O-])cc1"
  selectivity ratio: 6.2
- line-notation: "Cc1ccc(S(=O)(=O)NCC(=O)N/N=C/c2ccccc2)cc1"
  selectivity ratio: 55.7
- line-notation: "CC(=O)Nc1ccc(S(=O)(=O)N/N=C/c2ccccc2)cc1"
  selectivity ratio: 61.5
- line-notation: "Cc1ccc(S(=O)(=O)N[C@@H](Cc2ccccc2)C(=O)NN=C(c2ccccc2)c2ccccc2)cc1"
  selectivity ratio: "> 365"
- line-notation: "C/C(=N\\NC(=O)[C@H](Cc1ccccc1)NS(=O)(=O)c1ccc(C)cc1)c1cccc2ccccc12"
  selectivity ratio: 123
- line-notation: "O=S(=O)(c1ccc(Br)cc1)N1CCC(c2ccccc2)=N1"
  selectivity ratio: 382
- line-notation: "COc1cc(/C=N/NC(=O)[C@H](Cc2ccccc2)NS(=O)(=O)c2ccc(C)cc2)ccc1O"
  selectivity ratio: "> 476"
- line-notation: "O=C(CNC(=O)c1ccc([N+](=O)[O-])cc1)N/N=C/c1ccccc1"
  selectivity ratio: "> 97.1"
- line-notation: "Cc1ccc(S(=O)(=O)N[C@@H](Cc2ccccc2)C(=O)N/N=C/c2ccc([N+](=O)[O-])cc2)cc1"
  selectivity ratio: 1.5
- line-notation: "Cc1ccc(S(=O)(=O)N[C@@H](Cc2ccccc2)C(=O)N/N=C/c2ccc(Br)cc2)cc1"
  selectivity ratio: 15
- line-notation: "Cc1ccc(S(=O)(=O)N[C@@H](Cc2ccccc2)C(=O)N/N=C/c2ccccc2)cc1"
  selectivity ratio: 125
- line-notation: "CC(=O)Nc1ccc(S(=O)(=O)N[C@@H](CO)C(=O)N/N=C/c2ccccc2)cc1"
  selectivity ratio: "> 75.8"
